System: Escherichia coli TOP10
Measurement Protocol: shrunken log2 fold change of peptide-encoding DNA abundance (4.5 h post-induction vs induction); higher = less antimicrobial activity (less host growth inhibition)
Condition Details: time post-induction: 4.5 h; library: site-saturation at positions 5, 18, 19, 20
Measured Parameter: shrunken log2 fold change

1) RRIRKRPPRLPRPRPRPGYLPRP    -0.319
2) RRIRKRPPRLPRPRPRPIWWPRP    0.0844
3) RRIRERPPRLPRPRPRPYQQPRP    -0.228
4) RRIRYRPPRLPRPRPRPNWSPRP    0.0306
5) RRIRARPPRLPRPRPRPACIPRP    0.171
6) RRIRYRPPRLPRPRPRPNDPPRP    -0.549
7) RRIRQRPPRLPRPRPRPSTCPRP    -0.0113
8) RRIRHRPPRLPRPRPRPLNYPRP    -0.289

---

Test system: Escherichia coli TOP10
Measurement Protocol: shrunken log2 fold change of peptide-encoding DNA abundance (4.5 h post-induction vs induction); higher = less antimicrobial activity (less host growth inhibition)
Condition Details: time post-induction: 4.5 h; library: site-saturation at positions 5, 18, 19, 20
Reported shrunken log2 fold change values are given for each entry in this list.
Measured Parameter: shrunken log2 fold change

1. RRIRMRPPRLPRPRPRPQMVPRP    -0.243
2. RRIRDRPPRLPRPRPRPRWRPRP    0.605
3. RRIRLRPPRLPRPRPRPVAGPRP    0.0563
4. RRIRWRPPRLPRPRPRPAHRPRP    0.49
5. RRIRVRPPRLPRPRPRPPPAPRP    1.07
6. RRIRPRPPRLPRPRPRPIKDPRP    -0.763
7. RRIRGRPPRLPRPRPRPFTFPRP    -0.0577
8. RRIRMRPPRLPRPRPRPAISPRP    0.0806
9. RRIRWRPPRLPRPRPRPYPHPRP    -0.184
10. RRIRWRPPRLPRPRPRPEHSPRP    0.114
11. RRIRQRPPRLPRPRPRPYHHPRP    -0.186
12. RRIRQRPPRLPRPRPRPLPTPRP    0.131
13. RRIRTRPPRLPRPRPRPNPCPRP    0.0479
14. RRIRLRPPRLPRPRPRPRIKPRP    -0.168
15. RRIRVRPPRLPRPRPRPLHPPRP    0.149

---

Test system: Escherichia coli TOP10;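 also: peptides expressed intracellularly from a pBAD plasmid library in pooled LB shake-flask culture, induced with 0.3% L-arabinose, DNA abundance read by NGS, three biological replicates, DESeq2 with apeglm shrinkage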
Measurement Protocol: shrunken log2 fold change of peptide-encoding DNA abundance (4.5 h post-induction vs induction); higher = less antimicrobial activity (less host growth inhibition)
Condition Details: time post-induction: 4.5 h; library: site-saturation at positions 5, 18, 19, 20
Given measured shrunken log2 fold change, output y if it is greater than or equal to -0.1 and n if not.

1) RRIRSRPPRLPRPRPRPVRIPRP    n
2) RRIRERPPRLPRPRPRPFRFPRP    n
3) RRIRSRPPRLPRPRPRPEFMPRP    y
4) RRIRDRPPRLPRPRPRPYELPRP    n
5) RRIRTRPPRLPRPRPRPYIEPRP    n
6) RRIRCRPPRLPRPRPRPAMWPRP    y
7) RRIRVRPPRLPRPRPRPVAEPRP    y
8) RRIRWRPPRLPRPRPRPTLLPRP    y
9) RRIRGRPPRLPRPRPRPPDNPRP    y
10) RRIRIRPPRLPRPRPRPQQLPRP    y
11) RRIRDRPPRLPRPRPRPEEWPRP    y
12) RRIRQRPPRLPRPRPRPCPHPRP    n
13) RRIRARPPRLPRPRPRPWHCPRP    n
14) RRIRYRPPRLPRPRPRPLPFPRP    n
15) RRIRTRPPRLPRPRPRPVDGPRP    y

Taken from the supplement of paper PMC9112550.
